A set of molecules tested on UniProt P27487, with measured IC50:

// `C[C@@H]1O[C@@H](Oc2ccc(CN=C=S)cc2)[C@H](O)[C@H](O)[C@H]1O` : IC50 value = 158 µM

// `CCOC(=O)NCc1ccc(O[C@@H]2O[C@@H](C)[C@H](O)[C@@H](O)[C@H]2O)cc1` : IC50 value = 0.798 µM

// CC(=O)OC[C@H](Cc1ccccc1)NC(=O)[C@H](Cc1ccccc1)NC(=O)c1ccccc1 [Compound 3, Aurantiamide acetate] : IC50 value = 191 µM
